Please provide measured CMV-LACZ in Myotubes, signal relative to DMSO for the entries that follow.
Tested on: β-galactosidase in CMV-LacZ C2C12 myotubes
ASSAY DETAILS: CMV-LacZ secondary screen in C2C12 myotubes (β-Gal stabilizing assay)
Type: cell-based, mouse
DETAILS: 10 uM; C2C12 CMV-LacZ myotubes; fold relative to DMSO
I only need the number, thanks.

Tell me its CMV-LACZ in Myotubes, signal relative to DMSO given Cc1ccc(NC(=O)NCc2nc3ccccc3n2C)cc1 as the entry.
1.031

Tell me its CMV-LACZ in Myotubes, signal relative to DMSO given O=Cc1ccc(C(=O)OCC(=O)N2CCCC2)cc1 as the entry.
0.862

Tell me its CMV-LACZ in Myotubes, signal relative to DMSO given Cc1ccc(NS(=O)(=O)c2ccc3c(c2)NC(=O)CCS3)c(Br)c1 as the entry.
0.7409

Tell me its CMV-LACZ in Myotubes, signal relative to DMSO given COc1cc(NC(=O)CN(C)S(=O)(=O)c2ccc3c(c2)CC(C)N3C(C)=O)cc(OC)c1OC (stereo not drawn) as the entry.
0.9675

Tell me its CMV-LACZ in Myotubes, signal relative to DMSO given COc1ccc(CNC(=O)COC(=O)CCc2c[nH]c3ccccc23)cc1 as the entry.
0.9933

Tell me its CMV-LACZ in Myotubes, signal relative to DMSO given CNc1cc([N+](=O)[O-])ccc1OCc1ccccc1 as the entry.
0.8068

Tell me its CMV-LACZ in Myotubes, signal relative to DMSO given Fc1ccc(-c2ccnc3nc(N4CCN(c5ccccc5)CC4)nn23)cc1 as the entry.
1.0825

Tell me its CMV-LACZ in Myotubes, signal relative to DMSO given CCCS(=O)(=O)N1CCCC(C(=O)c2cccc(Cl)c2)C1 (stereo not drawn) as the entry.
0.8943

Tell me its CMV-LACZ in Myotubes, signal relative to DMSO given O=C(NCc1ccccc1)c1csc(-c2cccnc2)n1 as the entry.
0.8601

Hey, just so you know, these numbers are from patent US9980943B2.
